B1: ZNF263 (parent)
chain: RTHTGEKPYKCTLCGENFSHRSNL

- Variants of: B1
- Assay Remarks: protein stability index of a GFP-peptide fusion (GPS, HEK-293T) (PSI 1-6); higher = more stable;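 also: lentivirally expressed fusions sorted by FACS into six bins by GFP to DsRed ratio, PSI derived from sequencing read proportions per bin multiplied by bin number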
- Study Conditions: c terminus: a fixed tail appended

[
  {
    "Variant Label": "S19H",
    "protein stability index": 1.48
  },
  {
    "Variant Label": "C14G",
    "protein stability index": 3.13
  },
  {
    "Variant Label": "G5N",
    "protein stability index": 2.3
  },
  {
    "Variant Label": "E16Y",
    "protein stability index": 2.08
  },
  {
    "Variant Label": "S19Q",
    "protein stability index": 2.09
  },
  {
    "Variant Label": "R1L",
    "protein stability index": 2.39
  },
  {
    "Variant Label": "C14R",
    "protein stability index": 3.17
  },
  {
    "Variant Label": "C11Q",
    "protein stability index": 3.24
  }
]
